Measured pIC50, listed per entry for reference.
system: MAPK14 (human) (UniProt Q16539)
Sequence (Q16539 whole entry, looked up): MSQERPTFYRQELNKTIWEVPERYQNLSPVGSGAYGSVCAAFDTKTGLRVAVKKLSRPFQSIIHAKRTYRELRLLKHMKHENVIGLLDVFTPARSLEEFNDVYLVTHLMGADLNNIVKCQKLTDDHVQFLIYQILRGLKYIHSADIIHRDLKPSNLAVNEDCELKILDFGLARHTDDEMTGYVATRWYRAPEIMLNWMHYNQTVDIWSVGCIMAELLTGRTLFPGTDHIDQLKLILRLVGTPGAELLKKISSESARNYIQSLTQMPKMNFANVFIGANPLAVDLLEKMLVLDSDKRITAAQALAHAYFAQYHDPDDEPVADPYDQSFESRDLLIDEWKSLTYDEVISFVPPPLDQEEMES
assayExplanation: Inhibition of IL-1 Production in LPS-Stimulated PBMCs
cond: pbmc
pIC50: −log10 of the molar value.

Solved entries:
                                   molecule  quantitymeasured  measuredresult
0  Nc1ccc(Cl)c(-c2c(=O)ncn3nc(Sc4ccc(F)cc4)ccc23)c1Cl             pIC50    6.30 to 7.00
1  COc1ccc(-c2c(=O)ncn3nc(Sc4ccc(F)cc4)ccc23)c(Cl)c1OC             pIC50          < 6.30
2  NC(=O)C(c1cccc(-c2ccccc2CNCCO)n1)c1c(Cl)cccc1Cl (stereo not given)             pIC50          < 6.30
3  Cc1ccc(Sc2ccc3c(-c4c(Cl)cccc4Cl)c(=O)ncn3n2)cc1C             pIC50          < 6.30
4  NC(=O)C(c1ccc(C(=O)c2ccccc2)cn1)c1c(Cl)cccc1Cl (stereo not given)             pIC50          < 6.30
5  O=C(O)c1cc(F)ccc1Sc1ccc2c(-c3c(Cl)cccc3Cl)c(=O)ncn2n1             pIC50          < 6.30
6    O=c1ncn2nc(Sc3ccccc3)ccc2c1-c1ccccc1Cl             pIC50          < 6.30
7  COc1ccc(-c2c(=O)ncn3nc(Sc4ccc(F)cc4)ccc23)cc1OC             pIC50          < 6.30

State pIC50 on MAPK14 (human) (UniProt Q16539). Entry: NC(=O)C(c1cccc(-c2ccccc2CN2CCNCC2)n1)c1c(Cl)cccc1Cl (stereo not given) < 6.30

State pIC50 on MAPK14 (human) (UniProt Q16539). Entry: CN(C)C=Nc1ccc(-c2c(=O)ncn3nc(Sc4cc(F)ccc4Cl)ccc23)c(Cl)c1 6.30 to 7.00

----------
system: MAPK14 (human) (UniProt Q16539)
assayExplanation: Inhibition of IL-1 Production in Whole Blood
pIC50: −log10 of the molar value.
Measured pIC50, listed per entry for reference.

Solved entries:
In [3]: df
Out[3]:
                                   molecule  measuredresult
0  CC(=O)Nc1ccc(C2=C3C=CC(Sc4ccc(F)cc4)=NN3CNC2=O)c(Cl)c1          < 6.30
1  Cc1ccccc1SC1=NN2CNC(=O)C(c3c(Cl)cccc3Cl)=C2C=C1          < 6.30
2  COC(=O)c1ccccc1Sc1ccc2c(-c3c(Cl)cccc3Cl)c(=O)ncn2n1          < 6.30
3  COc1ccc(C2=C3C=CC(Sc4ccc(F)cc4)=NN3CNC2=O)c(Cl)c1          < 6.30
4  O=c1ncn2nc(Sc3ccc(F)cc3Cl)ccc2c1-c1c(Cl)cccc1Cl    6.30 to 6.60
5  NC(=O)C(c1cccc(-c2ccccc2)n1)c1cc(Cl)ccc1Cl (stereo not given)          < 6.30
6  O=C1NCN2N=C(Sc3ccc(F)cc3)C=CC2=C1c1cc2c(cc1Cl)OCO2    6.30 to 6.60
7  O=C1NCN2N=C(Sc3ccccc3O)C=CC2=C1c1c(Cl)cccc1Cl    6.30 to 6.60
8  O=C(CCl)Nc1ccc(C2=C3C=CC(Sc4ccc(F)cc4)=NN3CNC2=O)c(Cl)c1          < 6.30

Let us examine a further case.
Tell me its pIC50 given NC(=O)C(c1cccc(-c2cccc3ccccc23)n1)c1c(Cl)cccc1Cl (stereo not given) as the entry. < 6.30

Each recorded value in this set is attributed to the Kinase Knowledgebase extract (Sharma et al. 2016).
